Test system: PKB Ser473 phosphorylation in Rat1-myr-HA-p110 alpha cells
experimental details: Reverse protein array assay, PKB Ser473 phosphorylation in Rat1-myr-p110 alpha cells
Type: cell-based
settings: 0.5 h, pAkt Ser473, 30 minutes compound incubation, read-out: p-PKB IC50
measured property: IC50 (nM)
The figure you give is taken to be in nM; do not add the unit.

Please review the entries below; each comes with its answer.
>  <molecule>
CNc1ccc(-c2ccc3ncc4c(c3c2)n(-c2cn(C(C)C)nc2C)c(=O)n4C)cn1 [Example 118.1]

>  <target of assay>
PKB Ser473 phosphorylation in Rat1-myr-HA-p110 alpha cells

>  <IC50 [nM]>
8

$$$$
>  <molecule>
Cc1nn(C)c(C)c1-n1c(=O)n(C)c2cnc3ccc(-c4cccc(S(=O)(=O)N(C)C)c4)cc3c21 [Example 53.2]

>  <target of assay>
PKB Ser473 phosphorylation in Rat1-myr-HA-p110 alpha cells

>  <IC50 [nM]>
375

$$$$
>  <molecule>
CCNC(=O)c1cc(-c2ccc3ncc4c(c3c2)n(-c2cn(C(C)C)nc2C)c(=O)n4C)cnc1N [Example 227]

>  <target of assay>
PKB Ser473 phosphorylation in Rat1-myr-HA-p110 alpha cells

>  <IC50 [nM]>
136

$$$$
>  <molecule>
Cc1nn(C)cc1-n1c(=O)n(C)c2cnc3ccc(-c4cccc(S(=O)(=O)N5CCCC5)c4)cc3c21 [Example 44]

>  <target of assay>
PKB Ser473 phosphorylation in Rat1-myr-HA-p110 alpha cells

>  <IC50 [nM]>
41

$$$$
>  <molecule>
CCNc1ncc(-c2ccc3ncc4c(c3c2)n(-c2cn(C)nc2C)c(=O)n4C)cc1COC [Example 206.1]

>  <target of assay>
PKB Ser473 phosphorylation in Rat1-myr-HA-p110 alpha cells

>  <IC50 [nM]>
11

$$$$

Please examine the following record next.
Q) Look up IC50 for this molecule: Cc1nn(CCO)cc1-n1c(=O)n(C)c2cnc3ccc(-c4cncc(N5CCOCC5)c4)cc3c21 [Example 175.3]
A) 344
